Test system: Myzus persicae
Experiment: Myzus persicae spray test
Type: in vivo
Conditions: in Brassica rapa, foliar, 120 h, read-out: activity (mortality), application rate 100 g/ha, spray, Chinese cabbage leaf disks, after 5 days
experimentalEndpoint: mortality at 100 g/ha (%)
# number only, unit % dropped from output

Take a look at these entries with their results.
Qu. Please supply the value of reported mortality at 100 g/ha for the item Cc1nc([C@H](C)NC(=O)c2cc(Br)cc(OC(F)(F)F)c2)n(-c2cc(C#N)ccn2)n1
Ans. 90

Qu. Please supply the value of reported mortality at 100 g/ha for the item C[C@H](NC(=O)c1cc(Br)cc(C(F)F)c1)c1ncnn1-c1ccc(C#N)cn1
Ans. 90

Qu. Please supply the value of reported mortality at 100 g/ha for the item Cc1nc([C@H](C)NC(=O)c2cc(OC(F)(F)F)cc(C(F)F)c2)n(-c2ccc(C#N)cn2)n1
Ans. 100

Qu. Please supply the value of reported mortality at 100 g/ha for the item Cc1nc([C@H](C)NC(=O)c2cc(Br)cc(C(F)(F)F)c2)n(-c2ccc(C#N)cn2)n1
Ans. 100

Qu. Please supply the value of reported mortality at 100 g/ha for the item Cc1nc([C@H](C)NC(=O)c2cc(Cl)nc(C(F)(F)F)c2)n(-c2ccc(C#N)cn2)n1
Ans. 100

Qu. Please supply the value of reported mortality at 100 g/ha for the item Cc1nc([C@H](C)NC(=O)c2cc(C(F)(F)F)cc(C(F)(F)F)c2)n(-c2ccc(C(=O)N(C)CC3CC3)cn2)n1
Ans. 100

***
Qu. Please supply the value of reported mortality at 100 g/ha for the item C[C@H](NC(=O)c1cc(Cl)cc(C(F)(F)F)c1)c1ncnn1-c1ccc(N(C)C(=O)C2CC2)cn1
Ans. 100

Qu. Please supply the value of reported mortality at 100 g/ha for the item C[C@H](NC(=O)c1cc(C(F)(F)F)cc(C(F)(F)F)c1)c1nc(C(C)(C)C)nn1-c1ccc(C#N)cn1
Ans. 90
